FYI, the data here is from ChEMBL document CHEMBL6121048.

- target.or.system: Glutamate NMDA receptor; Grin1/Grin2c (Rattus norvegicus, UniProt P35439+Q00961)
- Sequence (Q00961 whole entry, other chains not shown): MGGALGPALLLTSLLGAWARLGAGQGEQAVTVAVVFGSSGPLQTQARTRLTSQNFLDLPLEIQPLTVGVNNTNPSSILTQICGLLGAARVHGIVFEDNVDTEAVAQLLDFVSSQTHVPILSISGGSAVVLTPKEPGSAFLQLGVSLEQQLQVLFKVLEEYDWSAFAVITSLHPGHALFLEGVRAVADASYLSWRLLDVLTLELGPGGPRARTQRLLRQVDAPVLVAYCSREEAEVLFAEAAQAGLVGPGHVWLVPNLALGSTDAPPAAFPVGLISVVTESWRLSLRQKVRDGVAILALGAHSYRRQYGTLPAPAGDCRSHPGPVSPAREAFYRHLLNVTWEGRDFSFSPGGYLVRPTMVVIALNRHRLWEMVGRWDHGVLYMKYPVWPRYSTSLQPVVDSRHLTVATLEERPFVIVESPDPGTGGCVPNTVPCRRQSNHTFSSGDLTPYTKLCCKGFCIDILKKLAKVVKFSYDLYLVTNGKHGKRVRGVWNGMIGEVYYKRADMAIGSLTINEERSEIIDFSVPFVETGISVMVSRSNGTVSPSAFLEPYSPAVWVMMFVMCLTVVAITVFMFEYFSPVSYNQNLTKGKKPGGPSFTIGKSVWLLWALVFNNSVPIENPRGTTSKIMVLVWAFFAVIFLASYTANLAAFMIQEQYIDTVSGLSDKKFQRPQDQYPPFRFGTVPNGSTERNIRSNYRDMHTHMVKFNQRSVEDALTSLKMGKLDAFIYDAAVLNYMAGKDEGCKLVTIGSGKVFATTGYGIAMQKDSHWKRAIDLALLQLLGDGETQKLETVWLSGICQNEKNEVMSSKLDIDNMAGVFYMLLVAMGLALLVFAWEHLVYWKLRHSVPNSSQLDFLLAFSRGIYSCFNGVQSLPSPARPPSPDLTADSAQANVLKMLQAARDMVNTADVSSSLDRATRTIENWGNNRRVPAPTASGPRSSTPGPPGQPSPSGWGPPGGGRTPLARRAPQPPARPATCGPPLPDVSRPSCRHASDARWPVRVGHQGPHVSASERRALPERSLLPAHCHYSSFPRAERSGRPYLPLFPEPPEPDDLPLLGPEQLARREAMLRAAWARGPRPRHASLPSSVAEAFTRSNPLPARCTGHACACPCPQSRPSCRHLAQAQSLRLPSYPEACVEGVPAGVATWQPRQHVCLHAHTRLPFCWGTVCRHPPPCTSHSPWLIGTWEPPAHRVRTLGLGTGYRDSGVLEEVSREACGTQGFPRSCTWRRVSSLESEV
- assay.explanation: Agonist activity at recombinant rat GluN1/GluN2C NMDA receptor expressed in xenopus laevis oocytes in presence of L-glutamate by two-electrode voltage-clamp method
- Format: cell-based
measurement.name: pEC50
Note on pEC50: it is the negative log10 of concentration, concentration in mol/L.

Use the examples below as a reference point.
[[record]]
chemical_structure = "Cc1cc(C(=O)NC[C@@H](N)C(=O)O)sc1-c1ccccc1Br"
measurement_name = "pEC50"
measured_result = 7.60

[[record]]
chemical_structure = "CCc1ccccc1-c1ccc(C(=O)NC[C@@H](N)C(=O)O)s1"
measurement_name = "pEC50"
measured_result = 7.39


Tested system Glutamate NMDA receptor; Grin1/Grin2c (Rattus norvegicus, UniProt P35439+Q00961); pEC50 recorded for N[C@H](CNC(=O)c1cc(Br)c(-c2ccccc2F)s1)C(=O)O was 7.47

Tested system Glutamate NMDA receptor; Grin1/Grin2c (Rattus norvegicus, UniProt P35439+Q00961); pEC50 recorded for N[C@H](CNC(=O)c1ccc(-c2ccccc2F)s1)C(=O)O was 6.64

Tested system Glutamate NMDA receptor; Grin1/Grin2c (Rattus norvegicus, UniProt P35439+Q00961); pEC50 recorded for N[C@H](CNC(=O)c1ccc(-c2ccccc2)s1)C(=O)O was 6.19

Tested system Glutamate NMDA receptor; Grin1/Grin2c (Rattus norvegicus, UniProt P35439+Q00961); pEC50 recorded for COc1ccccc1-c1ccc(C(=O)NC[C@@H](N)C(=O)O)s1 was 6.18

Tested system Glutamate NMDA receptor; Grin1/Grin2c (Rattus norvegicus, UniProt P35439+Q00961); pEC50 recorded for N[C@H](CNC(=O)c1ccc(-c2ccccc2C(F)(F)F)s1)C(=O)O was 7.06

###

- target.or.system: Glutamate NMDA receptor; Grin1/Grin2a (Rattus norvegicus) (UniProt P35439+Q00959)
- assay.explanation: Partial agonist activity at recombinant rat GluN1/GluN2A NMDA receptor expressed in xenopus laevis oocytes by measuring maximum response by two-electrode voltage-clamp method relative to glycine
- Type: cell-based
- measurement.conditions: filed as partial agonist
molecules and their reported Rmax
Your answer should be a plain number; it is taken to be in %.

[[record]]
chemical_structure = "COc1ccc(F)cc1-c1ccc(C(=O)NC[C@@H](N)C(=O)O)s1"
target_or_system = "Glutamate NMDA receptor; Grin1/Grin2a (Rattus norvegicus) (UniProt P35439+Q00959)"
measured_result = 83

[[record]]
chemical_structure = "N[C@H](CNC(=O)c1ccc(-c2ccccc2Br)s1)C(=O)O"
target_or_system = "Glutamate NMDA receptor; Grin1/Grin2a (Rattus norvegicus) (UniProt P35439+Q00959)"
measured_result = 80

[[record]]
chemical_structure = "N[C@H](CNC(=O)c1ccc(-c2ccccc2)s1)C(=O)O"
target_or_system = "Glutamate NMDA receptor; Grin1/Grin2a (Rattus norvegicus) (UniProt P35439+Q00959)"
measured_result = 69


The molecule listed as N[C@H](CNC(=O)c1cc(Br)c(-c2ccccc2Br)s1)C(=O)O shows Rmax equal to 58

###

compounds and their reported pEC50
- target.or.system: Glutamate NMDA receptor; Grin1/Grin2c (Rattus norvegicus, UniProt P35439+Q00961)
- assay.explanation: Agonist activity at recombinant rat GluN1/GluN2C NMDA receptor expressed in xenopus laevis oocytes in presence of L-glutamate by two-electrode voltage-clamp method
Note on pEC50: it is the negative log10 of concentration, concentration in mol/L.

Use the examples below as a reference point.
[[record]]
chemical_structure = "N[C@H](CNC(=O)c1ccc(-c2cccc(F)c2)s1)C(=O)O"
target_or_system = "Glutamate NMDA receptor; Grin1/Grin2c (Rattus norvegicus, UniProt P35439+Q00961)"
measured_result = 5.73

[[record]]
chemical_structure = "N[C@H](CNC(=O)c1ccc(-c2cccc(F)c2F)s1)C(=O)O"
target_or_system = "Glutamate NMDA receptor; Grin1/Grin2c (Rattus norvegicus, UniProt P35439+Q00961)"
measured_result = 6.03


Please find the next compound below.
Tested system Glutamate NMDA receptor; Grin1/Grin2c (Rattus norvegicus, UniProt P35439+Q00961); pEC50 recorded for N[C@H](CNC(=O)c1ccc(-c2ccccc2Br)s1)C(=O)O was 7.42
